Recorded values, source PubChem BioAssay AID938.

assay: qHTS Assay for Agonists of the Thyroid Stimulating Hormone Receptor: Activators of Intracellular cAMP Concentrations in Parental HEK 293; settings: parental HEK293 CNG cAMP sensor, membrane potential fluorescence; series mostly up to 57.1 µM; also: nearly all actives have a fitted effect of over 55% in size; also: potency is read from the fitted curve at half-maximal effect
The whole screen tested about 73,000 compounds, of which about 1,800 (2.5%) were called active. Roughly 13% stayed inconclusive and do not appear here. This is one part of a sample in which actives are shown more often than they occur.
Readout type: Potency

The following compounds have reported results that may help.
{"Compound": "CC(Sc1nc2ccccc2c(=O)n1Cc1ccco1)C(=O)c1ccccc1 (stereo unspecified)", "Potency": "15.8 µM (active)"}
{"Compound": "COc1ccc(-c2nc3cnc(N(C)C)nc3n(Cc3cccs3)c2=O)cc1", "Potency": "inactive"}
{"Compound": "CCc1cc(=O)oc2cc(OCC(=O)N3CCCc4ccccc43)ccc12", "Potency": "inactive"}
{"Compound": "CN(C(=O)CSc1nnnn1-c1ccccc1)C1CCCCC1", "Potency": "inactive"}
{"Compound": "Cc1ccc(C(=O)N2CCN(C3CCCCC3)CC2)s1", "Potency": "inactive"}
{"Compound": "Cc1nc2c(c(=O)n1Cc1ccco1)c1nc3ccccc3nc1n2Cc1ccccc1", "Potency": "inactive"}
{"Compound": "C[C@@H]1O[C@@H](O[C@@H]2[C@@H](O)[C@H](OCCc3ccc(O)c(O)c3)O[C@H](CO[C@@H]3O[C@H](CO)[C@@H](O)[C@H](O)[C@H]3O)[C@H]2OC(=O)/C=C/c2ccc(O)c(O)c2)[C@H](O)[C@H](O)[C@H]1O", "Potency": "inactive"}
{"Compound": "COc1ccc(N2C(=O)CCC(C(=O)N(C)C3CCCCC3)C2c2ccc(OC)c(OC)c2)cc1 (stereo unspecified)", "Potency": "inactive"}
{"Compound": "CCOc1ccc2c(c1)cc(CN(C(=O)CC)C1CCCCC1)c1nnnn12", "Potency": "20 µM (active)"}
{"Compound": "Cc1ccc(C(=O)CSc2nc3ccccc3c(=O)n2N)o1", "Potency": "inactive"}

--- query ---
Need Potency of `CC(C)(C)c1cc(CN2CCN(CCC#N)CC2)cc(C(C)(C)C)c1O` , thanks.
7.94 µM (active)

----------
experiment: qHTS Assay for Agonists of the Thyroid Stimulating Hormone Receptor: Activators of Intracellular cAMP Concentrations in Parental HEK 293; conditions: parental HEK293 CNG cAMP sensor, membrane potential fluorescence; series mostly up to 57.1 µM; also: nearly all actives have a fitted effect of over 55% in size
About 1,800 (2.5%) of roughly 73,000 compounds were called active. Another 13% or so got no clear call; they are omitted. The call rests on the fitted dose curve; in most records, active means well fitted activation curve with a large enough effect; inconclusive means small, poorly fitted or top-dose-only effect; inactive means no such curve, though single readings can be large or run the other way. What follows is part of a selection rich in actives, with near analogues and random picks from the rest.
Result category, one only: active, inactive

Field: outcome | Entry: `O=C(Nc1nc(-c2ccc3c(c2)OCO3)cs1)c1ccncc1`
active

Query CCC[C@@H]1C[C@@]1(CCC)C(NC(=O)c1ccc(-c2ccccc2)cc1)c1cccc(Cl)c1 (stereo not given in full) next
inactive

Item: `COc1ccc2c(c1)C(C)=CC(C)(C)N2C(=O)CNCc1ccc2c(c1)OCO2`
active

Another compound to look at: `O=C(Nc1cccnc1)c1ccc2c(c1)OCO2`
inactive

Param item: `CCOC(=O)c1nnn(-c2nc(OC)nc(N(C)C)n2)c1-c1ccccc1`
inactive

Then what about the compound `CCCN(CCC)C(=O)C1c2ccccc2Oc2ccccc21` ?
active

Thanks! And `O=C(Nc1ccc2c(c1)OCCO2)c1ccncc1` ?
inactive

Moving on to `CCC[C@@H]1C[C@@]1(CCC)[C@@H](NC(=O)c1ccccc1)c1ccc(C(=O)OC)cc1`
active

Note, next up: Cc1ccc(-c2nnn(CC(=O)N(CCO)C(C(=O)NC(C)(C)C)c3ccncc3)n2)cc1 (stereo not given)
inactive

Check `CCn1cc(C(=O)NCc2ccc3c(c2)OCO3)c2cc(OC)c(OC)cc2c1=O` too.
inactive
